Hello, the source for this data is ChEMBL document CHEMBL3988442, in case you need it.

- TARGET_OR_SYSTEM: Sialic acid-binding Ig-like lectin 9 (Homo sapiens) (UniProt Q9Y336)
- Sequence (Q9Y336 whole entry): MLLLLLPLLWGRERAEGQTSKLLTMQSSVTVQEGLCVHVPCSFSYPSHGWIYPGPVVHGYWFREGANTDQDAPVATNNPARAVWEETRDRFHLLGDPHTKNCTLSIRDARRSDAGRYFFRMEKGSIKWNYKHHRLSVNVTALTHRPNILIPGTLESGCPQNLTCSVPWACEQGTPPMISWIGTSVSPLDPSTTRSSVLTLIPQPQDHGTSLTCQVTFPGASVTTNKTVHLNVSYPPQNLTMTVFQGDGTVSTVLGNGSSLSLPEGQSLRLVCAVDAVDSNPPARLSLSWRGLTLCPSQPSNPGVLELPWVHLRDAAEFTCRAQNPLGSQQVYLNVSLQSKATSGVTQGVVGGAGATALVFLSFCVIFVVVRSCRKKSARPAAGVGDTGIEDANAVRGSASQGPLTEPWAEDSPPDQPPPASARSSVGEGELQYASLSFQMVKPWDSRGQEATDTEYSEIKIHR
- TEST_PROTOCOL: Hs-Siglec9 ALPHAscreen SOP 20170721
- Design: scale not given: direction of the effect not stated beside the values
- CONDITION_LABEL: 10 µM

COMPOUND	TARGET_OR_SYSTEM	Percent Effect
O=C(NCc1ccccc1-n1cccn1)N1CCN2CCCCC2C1 (stereo not drawn)	Sialic acid-binding Ig-like lectin 9 (Homo sapiens) (UniProt Q9Y336)	9.91%
O=C(c1ccc(NC2CC2)nc1)N1CCCC(n2cccn2)C1 (stereo not drawn)	Sialic acid-binding Ig-like lectin 9 (Homo sapiens) (UniProt Q9Y336)	1.67%
O=C(NCCNC(=O)c1scnc1Cl)c1ccccc1	Sialic acid-binding Ig-like lectin 9 (Homo sapiens) (UniProt Q9Y336)	3.33%
CCn1cc(CN2CCC(c3nnc(CN(C)C)n3CC)CC2)cn1	Sialic acid-binding Ig-like lectin 9 (Homo sapiens) (UniProt Q9Y336)	6.14%
Cc1cccc(CS(=O)(=O)CC(=O)NCCCOC(C)C)c1	Sialic acid-binding Ig-like lectin 9 (Homo sapiens) (UniProt Q9Y336)	5.88%
Fc1ccc(OCc2noc(CN3CCc4cncnc4C3)n2)cc1	Sialic acid-binding Ig-like lectin 9 (Homo sapiens) (UniProt Q9Y336)	2.94%
Cc1ccccc1CN(C)Cc1nc2c(cnn2C)c(=O)[nH]1	Sialic acid-binding Ig-like lectin 9 (Homo sapiens) (UniProt Q9Y336)	-3.07%
Cc1sc(NC(=O)CN(C)S(C)(=O)=O)c(C#N)c1C	Sialic acid-binding Ig-like lectin 9 (Homo sapiens) (UniProt Q9Y336)	-2.17%
COc1ccc(CN2C[C@H]3CN(c4ccsc4)C(=O)[C@H]3C2)cc1	Sialic acid-binding Ig-like lectin 9 (Homo sapiens) (UniProt Q9Y336)	-0.914%
CCNc1cc2c(nn1)CCN(C(=O)Cc1noc3ccccc13)C2	Sialic acid-binding Ig-like lectin 9 (Homo sapiens) (UniProt Q9Y336)	6.44%
CCS(=O)(=O)N1CCCc2ccc(NC(=O)Cc3ccc(F)cc3)cc21	Sialic acid-binding Ig-like lectin 9 (Homo sapiens) (UniProt Q9Y336)	-9.41%
COc1ccc(-c2ccnc3c2C(=O)CCC3)cc1	Sialic acid-binding Ig-like lectin 9 (Homo sapiens) (UniProt Q9Y336)	-8.36%
O=C(NCCCN1CCCCC1)c1ccc(-n2ccc3ccccc32)s1	Sialic acid-binding Ig-like lectin 9 (Homo sapiens) (UniProt Q9Y336)	-2.17%
